Provide the reported Purity of each item.
# method summary: Stability of select salts of Compound 1 at 5, 25 and 40° C. over 6 months, purity by HPLC
# Assay type: physicochemical
# condition summary: 25° C., Initial
Structures can show the parent of a compound that is named as a salt.
Reply with just the number.

INPUT: Returns the measured Purity for the input compound. Input: C[C@H](NC(=O)OC[n+]1cccc(C(=O)NCCO[N+](=O)[O-])c1)C1CCCCC1 [Compound 1 Sulphate Salt]
OUTPUT: 94.7

INPUT: Would you mind telling me what Purity value was observed for C[C@H](NC(=O)OC[n+]1cccc(C(=O)NCCO[N+](=O)[O-])c1)C1CCCCC1 [Compound 1 Phosphate Salt] ?
OUTPUT: 96.5

INPUT: Can you share its Purity? I mean this compound: C[C@H](NC(=O)OC[n+]1cccc(C(=O)NCCO[N+](=O)[O-])c1)C1CCCCC1 [Compound 1 4-Nitrobesylate Salt]
OUTPUT: 98.1

INPUT: For C[C@H](NC(=O)OC[n+]1cccc(C(=O)NCCO[N+](=O)[O-])c1)C1CCCCC1 [Compound 1 Triflate Salt] , what is its reported Purity?
OUTPUT: 96.6

INPUT: Need Purity, item C[C@H](NC(=O)OC[n+]1cccc(C(=O)NCCO[N+](=O)[O-])c1)C1CCCCC1 [Compound 1 Perchlorate Salt]
OUTPUT: 97.6

INPUT: Quick check: Purity of C[C@H](NC(=O)OC[n+]1cccc(C(=O)NCCO[N+](=O)[O-])c1)C1CCCCC1 [Compound 1 Trifluoroacetate Salt] ?
OUTPUT: 98.6

INPUT: Need Purity, item C[C@H](NC(=O)OC[n+]1cccc(C(=O)NCCO[N+](=O)[O-])c1)C1CCCCC1 [Compound 1 Esylate Salt]
OUTPUT: 95.4

INPUT: Which Purity is reported for this compound? C[C@H](NC(=O)OC[n+]1cccc(C(=O)NCCO[N+](=O)[O-])c1)C1CCCCC1 [Compound 1 Besylate Salt]
OUTPUT: 96.6

INPUT: Data request, read-out Purity, for C[C@H](NC(=O)OC[n+]1cccc(C(=O)NCCO[N+](=O)[O-])c1)C1CCCCC1 [Compound 1 4-Bromobesylate Salt]
OUTPUT: 98.4

====

# method summary: Stability of select salts of Compound 1 at 5, 25 and 40° C. over 6 months, purity by HPLC
# Format: physicochemical
# condition summary: 5° C., 6th Month
Structures can show the parent of a compound that is named as a salt.
property: Purity
API doc: respond with a numeric literal and nothing else, no unit.

INPUT: So what's the measured Purity for this one? C[C@H](NC(=O)OC[n+]1cccc(C(=O)NCCO[N+](=O)[O-])c1)C1CCCCC1 [Compound 1 Phosphate Salt]
OUTPUT: 94.5

INPUT: What measured Purity goes with C[C@H](NC(=O)OC[n+]1cccc(C(=O)NCCO[N+](=O)[O-])c1)C1CCCCC1 [Compound 1 Perchlorate Salt] ?
OUTPUT: 94.8

INPUT: I am curious: what Purity value has been reported for C[C@H](NC(=O)OC[n+]1cccc(C(=O)NCCO[N+](=O)[O-])c1)C1CCCCC1 [Compound 1 Esylate Salt] ?
OUTPUT: 89.6

INPUT: // returns reported Purity for input C[C@H](NC(=O)OC[n+]1cccc(C(=O)NCCO[N+](=O)[O-])c1)C1CCCCC1 [Compound 1 Besylate Salt]
OUTPUT: 86.9

INPUT: GET /values?readout=Purity&item= C[C@H](NC(=O)OC[n+]1cccc(C(=O)NCCO[N+](=O)[O-])c1)C1CCCCC1 [Compound 1 Triflate Salt]
OUTPUT: 96.1

INPUT: Could you tell me which Purity is on file for C[C@H](NC(=O)OC[n+]1cccc(C(=O)NCCO[N+](=O)[O-])c1)C1CCCCC1 [Compound 1 Trifluoroacetate Salt] ?
OUTPUT: 97.2

INPUT: Using the record for C[C@H](NC(=O)OC[n+]1cccc(C(=O)NCCO[N+](=O)[O-])c1)C1CCCCC1 [Compound 1 4-Bromobesylate Salt] , report its Purity.
OUTPUT: 86.6

INPUT: // query Purity value for entry C[C@H](NC(=O)OC[n+]1cccc(C(=O)NCCO[N+](=O)[O-])c1)C1CCCCC1 [Compound 1 Sulphate Salt]
OUTPUT: 90.9

INPUT: Which Purity value is on record for C[C@H](NC(=O)OC[n+]1cccc(C(=O)NCCO[N+](=O)[O-])c1)C1CCCCC1 [Compound 1 4-Nitrobesylate Salt] ?
OUTPUT: 97.9

====

# method summary: Stability of select salts of Compound 1 at 5, 25 and 40° C. over 6 months, purity by HPLC
# Format: physicochemical
# condition summary: 5° C., 3rd Month
Structures can show the parent of a compound that is named as a salt.
Assignment: determine reported Purity for the given molecules.

INPUT: Could you tell me which Purity is on file for C[C@H](NC(=O)OC[n+]1cccc(C(=O)NCCO[N+](=O)[O-])c1)C1CCCCC1 [Compound 1 Perchlorate Salt] ?
OUTPUT: 95.7

INPUT: Could you share which Purity value was measured for C[C@H](NC(=O)OC[n+]1cccc(C(=O)NCCO[N+](=O)[O-])c1)C1CCCCC1 [Compound 1 Phosphate Salt] ?
OUTPUT: 94.6

INPUT: Which Purity is listed for C[C@H](NC(=O)OC[n+]1cccc(C(=O)NCCO[N+](=O)[O-])c1)C1CCCCC1 [Compound 1 Besylate Salt] ?
OUTPUT: 87.5

INPUT: For C[C@H](NC(=O)OC[n+]1cccc(C(=O)NCCO[N+](=O)[O-])c1)C1CCCCC1 [Compound 1 4-Nitrobesylate Salt] , what is its reported Purity?
OUTPUT: 97.8

INPUT: Consider the molecule C[C@H](NC(=O)OC[n+]1cccc(C(=O)NCCO[N+](=O)[O-])c1)C1CCCCC1 [Compound 1 Trifluoroacetate Salt] and give its measured Purity.
OUTPUT: 97.0

INPUT: Request the reported Purity associated with C[C@H](NC(=O)OC[n+]1cccc(C(=O)NCCO[N+](=O)[O-])c1)C1CCCCC1 [Compound 1 Sulphate Salt]
OUTPUT: 91.1

INPUT: Look up Purity: C[C@H](NC(=O)OC[n+]1cccc(C(=O)NCCO[N+](=O)[O-])c1)C1CCCCC1 [Compound 1 4-Bromobesylate Salt]
OUTPUT: 89.6

INPUT: Data request, read-out Purity, for C[C@H](NC(=O)OC[n+]1cccc(C(=O)NCCO[N+](=O)[O-])c1)C1CCCCC1 [Compound 1 Esylate Salt]
OUTPUT: 91.5

INPUT: Can you share its Purity? I mean this molecule: C[C@H](NC(=O)OC[n+]1cccc(C(=O)NCCO[N+](=O)[O-])c1)C1CCCCC1 [Compound 1 Triflate Salt]
OUTPUT: 94.8

====

Assign Purity to each entry below.
# method summary: Stability of select salts of Compound 1 at 5, 25 and 40° C. over 6 months, purity by HPLC
# Format: physicochemical
# condition summary: 5° C., Initial
Counter-ions that a name gives are not always drawn.
Just the number, please.

INPUT: // Purity lookup, key: C[C@H](NC(=O)OC[n+]1cccc(C(=O)NCCO[N+](=O)[O-])c1)C1CCCCC1 [Compound 1 4-Nitrobesylate Salt]
OUTPUT: 98.1

INPUT: What Purity value was documented for this compound, C[C@H](NC(=O)OC[n+]1cccc(C(=O)NCCO[N+](=O)[O-])c1)C1CCCCC1 [Compound 1 Phosphate Salt] ?
OUTPUT: 96.5

INPUT: # input compound: C[C@H](NC(=O)OC[n+]1cccc(C(=O)NCCO[N+](=O)[O-])c1)C1CCCCC1 [Compound 1 Trifluoroacetate Salt] ; wanted: its Purity
OUTPUT: 98.6

INPUT: Consider the compound shown here: C[C@H](NC(=O)OC[n+]1cccc(C(=O)NCCO[N+](=O)[O-])c1)C1CCCCC1 [Compound 1 Esylate Salt] What is its recorded Purity?
OUTPUT: 95.4

INPUT: Which Purity is listed for C[C@H](NC(=O)OC[n+]1cccc(C(=O)NCCO[N+](=O)[O-])c1)C1CCCCC1 [Compound 1 4-Bromobesylate Salt] ?
OUTPUT: 98.4

INPUT: Give its Purity value. Item: C[C@H](NC(=O)OC[n+]1cccc(C(=O)NCCO[N+](=O)[O-])c1)C1CCCCC1 [Compound 1 Triflate Salt]
OUTPUT: 96.6

INPUT: For the compound shown here, C[C@H](NC(=O)OC[n+]1cccc(C(=O)NCCO[N+](=O)[O-])c1)C1CCCCC1 [Compound 1 Sulphate Salt] , give the reported Purity.
OUTPUT: 94.7

INPUT: Look up Purity: C[C@H](NC(=O)OC[n+]1cccc(C(=O)NCCO[N+](=O)[O-])c1)C1CCCCC1 [Compound 1 Perchlorate Salt]
OUTPUT: 97.6

INPUT: Please report the recorded Purity for C[C@H](NC(=O)OC[n+]1cccc(C(=O)NCCO[N+](=O)[O-])c1)C1CCCCC1 [Compound 1 Besylate Salt] .
OUTPUT: 96.6

Taken from patent US20250002458A1.
